Target: T1, PcrV (aa136-257).6xhis (Pseudomonas aeruginosa)
T1 chain: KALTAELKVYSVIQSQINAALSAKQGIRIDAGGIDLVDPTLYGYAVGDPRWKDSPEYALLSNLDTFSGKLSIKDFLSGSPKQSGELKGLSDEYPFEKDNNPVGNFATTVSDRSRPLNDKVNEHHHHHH
Assay: SPR (Biacore T200), mAb captured via anti-human Fc, PcrV injected, 25 C
property-name: koff (s⁻¹)
Write it as a number; the unit s⁻¹ goes unstated.

The binder listed as H1H29332P (antibody, V domains shown) VH: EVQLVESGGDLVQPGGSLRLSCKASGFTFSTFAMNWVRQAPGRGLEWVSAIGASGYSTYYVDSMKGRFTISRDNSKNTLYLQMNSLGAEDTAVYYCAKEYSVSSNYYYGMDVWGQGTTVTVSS VL: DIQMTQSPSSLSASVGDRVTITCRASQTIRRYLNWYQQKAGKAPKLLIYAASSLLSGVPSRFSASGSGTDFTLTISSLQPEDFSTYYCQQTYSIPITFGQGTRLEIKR has a reported koff of 3.83e-05

The binder listed as REGN3977 (antibody, V domains shown, also called Control III; REGN3977-Control III) VH: QVQLKQSGPGLVQPSQSLSITCTVSGFSLTSYGVHWVRQSPGKGLEWLGVIWSGGDTDYNAAFISRLSISKDNSKSQLFFKMNSLRATDTAIYYCARNRGDIYYDFTYAMDYWGQGTSVTVSS VL: DIQMTQSPASLSASVGETVTITCRASGNIQNYLAWYQQTQGKSPQLLVYSAKTLADGVPSRFSGSGSGTQYSLKINSLQPEDFGSYYCQHFWSTPYTFGGGTKLEIKR has a reported koff of 0.000956
